- target under test: T1, cynomolgus monkey CD3 E&D complex protein (Sino Biological Inc., CT032-00323H) (cynomolgus monkey, UniProt Q95LI5 22-117; Q95LI8 22-105)
- T1 construct: bought heterodimer
- T1 sequence (Q95LI5 22-117, chain 1 of 2): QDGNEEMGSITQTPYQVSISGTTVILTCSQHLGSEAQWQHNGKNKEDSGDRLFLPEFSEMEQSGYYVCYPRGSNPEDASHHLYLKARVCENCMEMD
- T1 sequence (Q95LI8 22-105, chain 2 of 2): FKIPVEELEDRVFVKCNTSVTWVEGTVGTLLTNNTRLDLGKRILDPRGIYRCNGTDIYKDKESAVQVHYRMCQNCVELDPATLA
- protocol description: BLI, antibody on sensor
observed property: koff (s⁻¹)

1) hzsp34.14 (antibody, human IgG1, lambda, L234A L235A, V domains shown, IgG1 L234A L235A, lambda) VH: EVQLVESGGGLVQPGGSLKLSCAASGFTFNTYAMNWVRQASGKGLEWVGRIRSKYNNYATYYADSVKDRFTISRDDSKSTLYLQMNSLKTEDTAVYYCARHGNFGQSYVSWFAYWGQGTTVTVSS VL: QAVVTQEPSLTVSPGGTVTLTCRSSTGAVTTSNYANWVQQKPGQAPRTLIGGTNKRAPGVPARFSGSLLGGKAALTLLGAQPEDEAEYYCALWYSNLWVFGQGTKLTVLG ... 9.49e-05
2) hzsp34.20 (antibody, human IgG1, lambda, L234A L235A, V domains shown, IgG1 L234A L235A, lambda) VH: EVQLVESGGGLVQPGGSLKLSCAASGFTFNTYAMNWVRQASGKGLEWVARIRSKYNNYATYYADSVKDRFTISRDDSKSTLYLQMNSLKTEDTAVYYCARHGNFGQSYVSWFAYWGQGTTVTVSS VL: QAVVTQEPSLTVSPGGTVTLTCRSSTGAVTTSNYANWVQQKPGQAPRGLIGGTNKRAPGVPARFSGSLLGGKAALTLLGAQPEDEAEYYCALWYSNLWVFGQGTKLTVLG ... 0.0011
3) hzsp34.7 (antibody, human IgG1, lambda, L234A L235A, V domains shown, IgG1 L234A L235A, lambda) VH: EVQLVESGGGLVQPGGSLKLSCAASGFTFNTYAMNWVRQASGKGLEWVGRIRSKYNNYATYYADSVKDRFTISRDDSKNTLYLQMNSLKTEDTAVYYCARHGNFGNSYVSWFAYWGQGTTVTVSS VL: QAVVTQEPSLTVSPGGTVTLTCRSSTGAVTTSNYANWFQQKPGQAPRTLIYGTNKRAPWTPARFSGSLLGGKAALTLLGAQPEDEAEYYCALWYSNLWVFGQGTKLTVLG ... 0.000463
